- testedOn: 5-hydroxytryptamine receptor 2C (Homo sapiens)
- Sequence (P28335 whole entry): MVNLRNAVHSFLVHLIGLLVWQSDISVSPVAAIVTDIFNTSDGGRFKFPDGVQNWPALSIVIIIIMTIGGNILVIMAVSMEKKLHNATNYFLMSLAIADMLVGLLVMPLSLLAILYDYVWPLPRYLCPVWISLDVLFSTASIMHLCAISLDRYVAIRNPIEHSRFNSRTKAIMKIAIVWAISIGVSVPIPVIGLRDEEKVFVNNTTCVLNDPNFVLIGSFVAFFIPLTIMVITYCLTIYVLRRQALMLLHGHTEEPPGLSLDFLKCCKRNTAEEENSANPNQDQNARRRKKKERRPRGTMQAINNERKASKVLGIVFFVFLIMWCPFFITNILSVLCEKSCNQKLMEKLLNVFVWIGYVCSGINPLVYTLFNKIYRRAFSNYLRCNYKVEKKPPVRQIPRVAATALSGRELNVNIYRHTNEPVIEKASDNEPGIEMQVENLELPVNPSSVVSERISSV
- procedureDetails: Antagonist activity at 5-HT2C receptor (unknown origin) incubated for 60 mins followed by 10 mins incubation in dark at room temperature by FLIPR method
I'd be grateful if you could share measured pIC50 for these entries.
Give bare numbers, as −log10 of the molar value.

COc1cc2c(cc1OC)-c1c(OC)c(OCc3ccc(Br)cc3)cc3c1[C@H](C2)N(C)CC3	6.36

Query: Form field: pIC50 recorded for COc1cc2c(cc1OC)-c1c(OC)c(OCc3ccccc3)cc3c1[C@H](C2)N(C)CC3 with 5-hydroxytryptamine receptor 2C (Homo sapiens) (enter value)
Reply: 6.79

====

- testedOn: 5-hydroxytryptamine receptor 2C (Homo sapiens)
I'd appreciate it if you marked entries TRUE when Ki is lower than 400 nM and FALSE when it is not.

Take a look at these entries with their results.
Cc1nc2sccn2c(=O)c1CCN1CCC(=C(c2ccc(F)cc2)c2ccc(F)cc2)CC1	TRUE
CCCCOc1cc2c3c(c1OC)-c1cc(OC)c(OC)cc1C[C@@H]3N(C)CC2	TRUE
CCCCOc1cc2c(cc1OC)-c1c(OC)c(OC)cc3c1[C@H](C2)N(C)CC3	FALSE
COc1cc2c(cc1OC)-c1c(OC)c(OC(C)C)cc3c1[C@H](C2)N(C)CC3	TRUE
COc1cc2c(cc1OCC1CC1)C[C@H]1c3c(cc(OC)c(OC)c3-2)CCN1C	FALSE
COc1cc2c(cc1OC1CCCCC1)C[C@H]1c3c(cc(OC)c(OC)c3-2)CCN1C	FALSE
CCCC(C)Oc1cc2c(cc1OC)-c1c(OC)c(OC)cc3c1[C@H](C2)N(C)CC3 (some centres undefined)	TRUE
COc1cc2c(cc1OCCF)C[C@H]1c3c(cc(OC)c(OC)c3-2)CCN1C	FALSE

Query: Lab note: Ki threshold 400 nM. Does this compound come in strictly under it? CCCCCOc1cc2c(cc1OC)-c1c(OC)c(OC)cc3c1[C@H](C2)N(C)CC3
Reply: FALSE

====

- Organism: Homo sapiens
- procedureDetails: Selectivity ratio of Ki for 5-HT2B receptor (unknown origin) to Ki for 5-HT2C receptor (unknown origin)
measurementName: Ratio Ki
Answers are plain numbers.

# example entries with known answers
COc1cc2c(cc1OC)-c1c(OC)c(OCCF)cc3c1[C@H](C2)N(C)CC3	0.6
C=CCOc1cc2c3c(c1OC)-c1cc(OC)c(OC)cc1C[C@@H]3N(C)CC2	0.3
COc1cc2c(cc1OCc1ccc(Br)cc1)C[C@H]1c3c(cc(OC)c(OC)c3-2)CCN1C	0.1
COc1cc2c(cc1OC1CCCCC1)C[C@H]1c3c(cc(OC)c(OC)c3-2)CCN1C	0.1
COc1cc2c(cc1OC)-c1c(OC)c(OCC3CC3)cc3c1[C@H](C2)N(C)CC3	0.4
CCOc1cc2c3c(c1OC)-c1cc(OC)c(OC)cc1C[C@@H]3N(C)CC2	0.5
COc1cc2c(cc1OC)-c1c(OC)c(OCc3ccccc3)cc3c1[C@H](C2)N(C)CC3	12
CCCCOc1cc2c3c(c1OC)-c1cc(OC)c(OC)cc1C[C@@H]3N(C)CC2	0.3
CCCC(C)Oc1cc2c(cc1OC)-c1c(OC)c(OC)cc3c1[C@H](C2)N(C)CC3 (stereo not given in full)	0.05

Now consider the entry below.
Query: Fill in: Ratio Ki of CCCCCCOc1cc2c3c(c1OC)-c1cc(OC)c(OC)cc1C[C@@H]3N(C)CC2 is ___
Reply: 1
